Provenance of the data: the supplement of paper PMC8975748

system: Saccharomyces cerevisiae BY4741 SeMeCo community; test: z-score of subpopulation abundance vs DMSO median, subpopulation auxotrophic for HM; higher = larger share of this subpopulation than in DMSO controls; details: 10 µM; 24 h; SM minimal medium; subpopulation (auxotrophy): HM
Counter-ions that a name gives are not always drawn.
Answer not satisfied if z-score of subpopulation abundance is under -0.4, and satisfied if it is -0.4 or more.

Record `Cc1ncc([N+](=O)[O-])n1C` ; criterion: z-score of subpopulation abundance no lower than -0.4. Met?
not satisfied

Please check the record CCn1cc(C(=O)O)c(=O)c2cc(F)c(N3CCN(C)CC3)cc21 [Pefloxacin Mesylate] and state if its z-score of subpopulation abundance is at or above -0.4.
satisfied

Given CNC1CCCN(c2c(F)cc3c(=O)c(C(=O)O)cn(C4CC4)c3c2OC)C1 (centres undefined) , state whether its z-score of subpopulation abundance is at least -0.4.
satisfied

Would you say COc1cc(/C=C/C(=O)N2CCN(CC(=O)N3CCCC3)CC2)cc(OC)c1OC [Cinepazide maleate] shows z-score of subpopulation abundance at minimum -0.4?
satisfied

Test whether the compound C#CCN[C@@H]1CCc2ccccc21 [Rasagiline Mesylate] records z-score of subpopulation abundance of -0.4 or higher.
not satisfied

More entries:
Reported z-score of subpopulation abundance reaches at least -0.4 for OC(CCCN1CCCCC1)(c1ccccc1)c1ccccc1 [Diphenidol HCl] ?
satisfied

Dear colleague, could you confirm whether `O=C1Nc2ccccc2C1=O` has z-score of subpopulation abundance at or above -0.4?
satisfied

Decide: is the reported value of z-score of subpopulation abundance for CC1(C)S[C@@H]2[C@H](NC(=O)[C@H](N)c3ccccc3)C(=O)N2[C@H]1C(=O)O [Ampicillin sodium] equal to or greater than -0.4?
not satisfied

Confirm if z-score of subpopulation abundance reported for the compound CC1(C)S[C@@H]2[C@H](NC(=O)C(c3ccccc3)S(=O)(=O)O)C(=O)N2[C@H]1C(=O)O (some centres undefined) [Sulbenicillin Sodium] is -0.4 or above.
satisfied

###

Entries and their z-score of subpopulation abundance
tested on: Saccharomyces cerevisiae BY4741 SeMeCo community; test: z-score of subpopulation abundance vs DMSO median, subpopulation auxotrophic for LU; higher = larger share of this subpopulation than in DMSO controls; settings: 10 µM; 24 h; SM minimal medium; subpopulation (auxotrophy): LU
Counter-ions that a name gives are not always drawn.
API note: the answer field is a bare number with no unit suffix.

Here's what some known entries look like.
Give the reported value of z-score of subpopulation abundance for this record: CC(C)COCC(CN(Cc1ccccc1)c1ccccc1)N1CCCC1 (centres undefined) [Bepridil hydrochloride]
1.16

Kindly indicate its recorded z-score of subpopulation abundance. Item: CONC(=O)Nc1ccc(-c2sc3c(c2CN(C)C)c(=O)n(-c2ccc(OC)nn2)c(=O)n3Cc2c(F)cccc2F)cc1 [Relugolix]
-0.09

Provide only the value of recorded z-score of subpopulation abundance for CN[C@H]1CC[C@@H](c2ccc(Cl)c(Cl)c2)c2ccccc21 [Sertraline HCl]
-0.7

Attention now turns to another entry.
Indicate the recorded z-score of subpopulation abundance value for this compound: OC(c1ccccc1)(c1ccccc1)C12CC[N+](CCOCc3ccccc3)(CC1)CC2 [Umeclidinium bromide]
-0.42

###

test system: Saccharomyces cerevisiae BY4741 SeMeCo community; test: z-score of subpopulation abundance vs DMSO median, subpopulation auxotrophic for M; higher = larger share of this subpopulation than in DMSO controls; conditions: 10 µM; 24 h; SM minimal medium; subpopulation (auxotrophy): M
Where a name gives a salt, the structure may show the parent alone.
// z-score of subpopulation abundance lookup, one value per entry
Answer using only a numeral; do not append any unit.

As a guide, the following entries are already answered.
Give the value of z-score of subpopulation abundance reported for the following: CO[C@@]1(NC(=O)CSC[C@@H](N)C(=O)O)C(=O)N2C(C(=O)O)=C(CSc3nnnn3C)CS[C@@H]21 [Cefminox Sodium]
-0.58

For the compound O=c1c(-c2ccc(O)cc2)coc2c([C@@H]3O[C@H](CO)[C@@H](O)[C@H](O)[C@H]3O)c(O)ccc12 [Puerarin] , give its measured z-score of subpopulation abundance value.
0.72

Give a short answer stating reported z-score of subpopulation abundance for O=C(c1ccccc1)c1ccc2n1CCC2C(=O)O (configuration not stated) [Ketorolac tromethamine salt] .
0.27

Supply recorded z-score of subpopulation abundance for CCCNC(C)C(=O)Nc1ccccc1C (configuration not stated) [Prilocaine] here.
-0.72

Complete the entry with z-score of subpopulation abundance for CCOC(=O)c1ccc(N)cc1 [Benzocaine]
1.02

Give the measured z-score of subpopulation abundance for CC1=C(C(=O)O)N2C(=O)[C@@H](NC(=O)[C@H](N)C3=CCC=CC3)[C@H]2SC1 [Cefradine]
-0.36

Further cases:
Please report z-score of subpopulation abundance for the following compound: C[N+]1(C)CCC(=C(c2ccccc2)c2ccccc2)CC1 [Diphemanil Methylsulfate]
1.5

Return reported z-score of subpopulation abundance. Input compound: Cc1ccsc1/C=C/C1=NCCCN1C [Morantel tartrate]
0.85

Name the recorded z-score of subpopulation abundance of the item CCOC(=O)OC(C)OC1=C(C(=O)Nc2ccccn2)N(C)S(=O)(=O)c2ccccc21 (configuration not stated) [Ampiroxicam] in your answer.
0

Complete the entry with z-score of subpopulation abundance for COC(=O)Nc1nc2cc([S+]([O-])c3ccccc3)ccc2[nH]1 (configuration not stated) [Oxfendazole]
0.39

Please supply the value of reported z-score of subpopulation abundance for the item COCCCC/C(=N\OCCN)c1ccc(C(F)(F)F)cc1 [Fluvoxamine maleate]
0.23

Please indicate z-score of subpopulation abundance recorded for CCOC(=O)C1=C(C)NC(C)=C(C(=O)OC)C1c1cccc(Cl)c1Cl (configuration not stated) [Felodipine]
3.86

Return the recorded z-score of subpopulation abundance value; entry: CN[C@@H]1[C@@H](O[C@H]2O[C@H](CO)[C@@H](N)[C@H](O)[C@H]2O)OC2C[C@@H](N)[C@@H](O[C@H]3[C@H](O)[C@@H](O)[C@H](N)C[C@@H]3N)OC2[C@@H]1O (some centres not stated) [Apramycin Sulfate]
-0.24
